target: UniProtKB Q95MF8
Sequence (Q95MF8 whole entry): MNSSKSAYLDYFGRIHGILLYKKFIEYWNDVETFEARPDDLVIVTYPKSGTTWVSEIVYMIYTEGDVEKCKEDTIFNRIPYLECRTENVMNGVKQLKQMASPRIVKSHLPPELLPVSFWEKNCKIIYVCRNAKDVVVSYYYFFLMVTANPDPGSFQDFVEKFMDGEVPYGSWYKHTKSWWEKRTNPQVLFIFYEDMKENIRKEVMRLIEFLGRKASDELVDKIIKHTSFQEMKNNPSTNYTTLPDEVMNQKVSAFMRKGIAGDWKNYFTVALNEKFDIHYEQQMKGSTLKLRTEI
Entries whose Ki is below 10 µM take True; entries at or above 10 µM take False.

{"COMPOUND": "C[C@]12CC[C@@H]3c4cc(F)ccc4CC[C@H]3[C@@H]1CCC2O (some centres not stated)", "TEST SYSTEM": "UniProtKB Q95MF8", "GROUP": "False"}
{"COMPOUND": "C[C@]12CC[C@@H]3c4cccc(N)c4CC[C@H]3[C@@H]1CCC2O (some centres not stated)", "TEST SYSTEM": "UniProtKB Q95MF8", "GROUP": "False"}
{"COMPOUND": "C[C@]12CC[C@@H]3c4cccc([N+](=O)[O-])c4CC[C@H]3[C@@H]1CC[C@@H]2O", "TEST SYSTEM": "UniProtKB Q95MF8", "GROUP": "True"}
{"COMPOUND": "C[C@]12CC[C@@H]3c4cc(N)ccc4CC[C@H]3[C@@H]1CCC2O (some centres not stated)", "TEST SYSTEM": "UniProtKB Q95MF8", "GROUP": "True"}
{"COMPOUND": "C[C@]12CC[C@@H]3c4ccccc4CC[C@H]3[C@@H]1CC[C@@H]2O", "TEST SYSTEM": "UniProtKB Q95MF8", "GROUP": "False"}
